Source of measurements: patent US9180118B2

# System: normal specimens (BM, CB, MPB)
# assay.name: Viability of normal specimens (BM, CB, MPB), Annexin V/7-AAD
# Assay type: cell-based, human
# study.conditions: normal specimens
result.type: Cytotoxic Normal

Reference set (5 entries):
compound="Nc1cccc(-c2cc3c(Oc4cccc(O)c4)ncnc3[nH]2)c1 [TWS119]" reported_result=No
compound="Cn1cc(C2=C(c3ccc(Cl)cc3Cl)C(=O)NC2=O)c2ccccc21 [SB-216763]" reported_result=No
compound="O=C1CSC(=O)N1 [2,4-thiazolidinedione]" reported_result=No
compound=Cc1cc(Nc2nc(-c3ccccc3)nc3ccccc23)n[nH]1 reported_result=No
compound="Cc1c(C)c2c(c(C)c1O)CCC(C)(COc1ccc(CC3SC(=O)NC3=O)cc1)O2 (stereo not shown) [Troglitazone]" reported_result=Yes

Given O=C1Cc2c([nH]c3ccc(Br)cc23)-c2ncccc2N1 [1-Azakenpaullone] , state its recorded Cytotoxic Normal.
No

Need Cytotoxic Normal of O=C(CCl)c1cc(Br)c(Br)s1 , thanks.
Yes

Which value of Cytotoxic Normal has been reported for O=C1NC(=O)C(Cc2ccc(OCCN3COc4ccccc4C3=O)cc2)S1 (stereo not shown) [DRF 2519] in the records?
No

Recorded Cytotoxic Normal of O=C1Nc2cc(Br)ccc2/C1=C1/Nc2ccccc2/C1=N\O [BIO] , please.
No

Sample O=c1sn(Cc2ccccc2)c(=S)n1Cc1ccccc1 — what was its Cytotoxic Normal?
No
